target: ScSla1-D3; experiment: SPOT peptide array binding signal intensity (averaged, normalized) (arbitrary units (background-subtracted, floor 0; scale differs between SH3 domains)); higher = stronger binding of the SH3 domain to the peptide
experimental.endpoint: SPOT peptide array binding signal intensity
// no unit, no text: just the number

q: Recall and state the measured SPOT peptide array binding signal intensity for RKNRAPPQRPRFNRE .
a: 30.2

q: Recall and state the measured SPOT peptide array binding signal intensity for RRARRQMGIPTISQV .
a: 308

q: Recall and state the measured SPOT peptide array binding signal intensity for SRQAIPPPVPNRPGG .
a: 9.5

q: Recall and state the measured SPOT peptide array binding signal intensity for QTMRQAPKRPDADVA .
a: 700

q: Recall and state the measured SPOT peptide array binding signal intensity for GQYRRTIVIPRRFFT .
a: 54.5

q: Recall and state the measured SPOT peptide array binding signal intensity for ISPPASPPPEFDFSK .
a: 3.5
